Catalogue of self-cleavage values
B1: HDV Ribozyme (parent)
chain: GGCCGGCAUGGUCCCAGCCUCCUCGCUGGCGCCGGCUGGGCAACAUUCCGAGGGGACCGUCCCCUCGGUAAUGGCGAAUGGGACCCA

# Variants of: B1
# assayNotes: self-cleavage, relative activity (ratio to wild type); higher = more cleavage; co-transcriptional
Write the value as a bare number.

Take a look at these entries with their results.
> print(dat)
                                biosequence  propertymeasured  reportedvalue
1  GACCGGCAUGGUCCCAGCCUCCUCGCUGGCGCCGGCUGGGCAACAUUCCGAGGGGACCGUCCCCUCGGUAAUGGCGAAUGGGACCGA [G2A C86G]     self-cleavage         0.0755
2  GGCCCGCAUGGUCCCAGUCUCCUCGCUGGCGCCGGCUGGGCAACAUUCCGAGGGGACCGUCCCCUCGGUAAUGGCGAAUGGGACCCA [G5C C18U]     self-cleavage          0.142
3  GGCCGGCAUGGUCCCAGCCUCCUCGCUGGCGCUGGCUGGGCAACAUUCCGAGUGGACCGUCCCCUCGGUAAUGGCGAAUGGGACCCA [C33U G53U]     self-cleavage          0.916
4  GGCCGGCAUGGUCCCAGCCUCCUCGCUGGCGCCGGCUGGGCAACAUUACGAGGAGACCGUCCCCUCGGUAAUGGCGAAUGGGACCCA [C48A G54A]     self-cleavage           1.06
5  GGCCGGCAUGGUCCCAGCCUCCUCGCUGGCGCCGUCUGGGCAACUUUCCGAGGGGACCGUCCCCUCGGUAAUGGCGAAUGGGACCCA [G35U A45U]     self-cleavage          0.289
6  GGCCGGCAUGGUCCCAGCCUCCUCGCUGGCGCCUGCUGGUCAACAUUCCGAGGGGACCGUCCCCUCGGUAAUGGCGAAUGGGACCCA [G34U G40U]     self-cleavage         0.0882
7  GGCCGGCAUGGUCCCAGCCUCGUCGCUGCCGCCGGCUGGGCAACAUUCCGAGGGGACCGUCCCCUCGGUAAUGGCGAAUGGGACCCA [C22G G29C]     self-cleavage         0.0536
8  GGCCGGCAUGUUCCCAGCCUCCUCGCUGGCGCCGGCUGGGCAACAUUCCAAGGGGACCGUCCCCUCGGUAAUGGCGAAUGGGACCCA [G11U G50A]     self-cleavage          0.415

Specify self-cleavage for GGCCGGCAUGGUCCCAGCCUCCUCGCUGGCGCCGGCUGUGCAACAUUCCGAGGGGACCGUCCCCUCGGUAAUGGCGAAUGCGACCCA [G39U G81C] and stop.
0.119

Look up self-cleavage of GACCGGCAUGGUCCCAGCCUCCUCGCUGGCGCCGGCUGGGCAACAUUCCGAGGGGACCGUCCCCUCGGUAAUGGCGACUGGGACCCA [G2A A78C] and report it.
0.0432
